Field: growth. Provide a value for each of the compounds that follow.
# Test system: A549/ATCC NSCLC
# protocol summary: NCI-60 one-dose screen, 48 h (100 = growth as untreated, 0 = no growth, -100 = all killed)
# reported conditions: 10 µM unless noted
The panel holds about 83,000 compounds, 20% with a hit somewhere; the sample as a whole holds those more often.
Answers are plain numbers, in %.

Below are worked cases with known answers.
Provide measured growth value, entry: "C(=N/Nc1ncnc2nc[nH]c12)/c1ccccn1"
35.2

Indicate the recorded growth value for this compound: "CCOC(=O)/C(C#N)=C\Nc1ccc2ncnc(Nc3ccc(Cl)cc3Cl)c2c1"
72.1

Report growth, nothing else, for this compound: "CCS(=O)(=O)c1ncnc2nc[nH]c12"
89.4

Dear colleague, could you please provide growth for the compounds listed below?
1. CCCCNC(=O)Oc1ccc(/C(=C(\C)c2ccc(Cl)cc2)c2ccc(OCCN3CCCCC3)cc2)cc1
2. O=c1c2cccc(F)c2sc2c(NCCCNCCO)nc3ccccc3c12
3. C=C1CC[C@@]2(C#N)[C@H]3[C@H](CC[C@@H]2C)[C@@H](C)C[C@@H](CC(C)(C)C#N)[C@H]13
4. CCCCCCCCCCCCCCCCCCOc1ccc(CC(=O)OCC[N+]2(C)CCCCC2)cc1
5. O=[N+]([O-])c1ccccc1NCSc1ccc(Cl)cc1
6. COc1cccc(OC)c1C(=O)N[C@@H]1C(=O)N2[C@@H]1SC(C)(C)[C@@H]2C(=O)O

1. 63.8
2. 26.9
3. 42.9
4. 88.9
5. 91.3
6. 105

I need growth for every entry listed below, if you could help.
1. CCN1C(=O)N(CC)C2Nn3c(s/c(=C4\C(=O)Nc5ccccc54)c3=O)=NC21 (centres undefined)
2. S=C(c1cccs1)N1CCN(c2cccc(Cl)c2)CC1
3. CCCCCCn1c(-c2ccc(C(=O)O/N=C(\N)c3ccc(OC)cc3)cc2)nc(-c2ccccc2)c1-c1ccccc1
4. CN(C)CCS(=O)(=O)Nc1cc(-c2ccc3ncc(C#N)c(Nc4ccc(F)c(Cl)c4)c3c2)cnc1Cl

[55.1, 87.6, -33.9, -30.5]

List growth for every entry below, keeping the order given.
1. O=C(/C=C/c1sc(Cl)nc1Cl)c1ccc(Br)cc1
2. NCCCNc1nc2ccccc2c2c(=O)c3cc(F)cc(F)c3sc12
3. CC(=O)OC[C@H]1OC(Sc2sc(C(=O)c3ccc(C)cc3)c(N)c2-c2nc3ccccc3s2)[C@H](OC(C)=O)[C@@H](OC(C)=O)[C@@H]1OC(C)=O (some centres undefined)
4. O=CN(SSN(C=O)C1CCCCC1)C1CCCCC1
5. CCOc1c(B(O)O)cccc1-c1nc2ccc3[nH]ncc3c2c2c1CCCC2
6. Oc1ccc(-c2nc3ccc4[nH]ncc4c3c3c2CCCC3)c2cccnc12
7. Fc1cc2c(cc1Cl)N(c1ncnc3ccc(-c4cnc5cnccn45)cc13)CC2
8. Cc1cccc2c3c(sc12)C(c1ccc(F)cc1)C(C#N)=C(N)O3 (centres undefined)

96.1
78.1
81.9
119
64.5
-34
86.8
22.1

Respectfully, I request growth for each entry included below.
1. Cc1cc(O)c(C2=NN(c3ccc(S(N)(=O)=O)cc3)C(c3ccccc3O)C2)cc1Cl (centres undefined)
2. O=[N+]([O-])c1ccc(Oc2nc(Nc3ccc(O[C@H]4CO[C@H]5[C@@H]4OC[C@@H]5O)c(Cl)c3)ncc2F)c(Cl)c1
3. Cc1ccc(C(=O)N/N=C/c2cccc([N+](=O)[O-])c2)cn1

3.15
40
92.1

From: PubChem BioAssay (NCI)
